- Tested on: UACC-62 melanoma
- test_description: NCI-60 one-dose screen, 48 h
- settings: 10 µM unless noted
Compounds without any hit were thinned out: in the full panel of roughly 83,000, 20% have a hit. Calls of active or inactive are those of the source. Rule for the calls: active = growth percent below 10; inactive = the rest.
Select the correct class. Options are Y for active, N for inactive and nothing else.

IN: Recorded call for CCOC(=O)C1=C(c2ccccc2)NC(=O)NC1CN1C(=O)c2ccccc2C1=O (stereo unspecified) ?
OUT: N

IN: Recorded test call requested for COc1cc(/C=C/C(=O)/C=C(/C=C/c2ccc(OC(C)=O)c(OC)c2)OB(F)F)ccc1OC(C)=O
OUT: N

====

- System: LOX IMVI melanoma
- test_description: NCI-60 one-dose screen, 48 h
- settings: 10 µM unless noted
Compounds without any hit were thinned out: in the full panel of roughly 83,000, 20% have a hit. Calls of active or inactive are those of the source. The calls were made as follows: active = growth percent below 10; inactive = the rest.
The categories you may choose from are active, inactive

Please review the entries below; each comes with its answer.
Oc1ccc(CN(Cc2ccc(C(F)(F)F)cc2)Cc2ccc(O)c3ncccc23)c2cccnc12 = inactive
Cc1nc(NC(=O)NC2CCCCC2)sc1C(=O)NN = inactive

IN: Which outcome did this test record for the compound CCN(CC)CCOC(=O)c1cccnc1 ?
OUT: inactive

IN: Fill in: this test's call for COC(=O)[C@H](Cc1cn(C)cn1)NC(=O)[C@H](Cc1c[nH]c2ccccc12)NC(=O)Nc1cc(C(F)(F)F)cc(C(F)(F)F)c1 is ___
OUT: active

IN: Could you please tell me the result logged for CCCCCCN(CCCCCC)CCC(=O)Nc1ccc(S(=O)(=O)c2ccc(NC(=O)CCN(CCCCCC)CCCCCC)cc2)cc1 in this assay?
OUT: inactive

IN: Lab log entry: Clc1ccc(I)c2ccccc12 — outcome as called in the assay?
OUT: inactive
